Experiment: Inhibition of human serum C1s-mediated lysis of rabbit Ab-sensitized sheep erythrocytes after 60 mins
measurementName: IC50 (nM)
The figure you give is taken to be in nM; do not add the unit.

// IC50 lookup, key: N=C(N)c1cc2ccc(OC(=O)c3cccs3)cc2s1 46
